Record form. Attribute: Kd. Fill in for each entry.
# Study Target: HaloTag7D106A (Rhodococcus rhodochrous, UniProt P0A3G2, A155T/A167V/A172T/A224E/C128F/C176G/D106A/D78G/E160K/E257K/H272N/K175M/K195N/L47V/L88M/N227D/P291S/S2A/S58T/T264A/Y273L/Y87F)
# Construct: made in house
# Sequence (P0A3G2 other isoform, or with tags, fused parts or gaps with the stated changes): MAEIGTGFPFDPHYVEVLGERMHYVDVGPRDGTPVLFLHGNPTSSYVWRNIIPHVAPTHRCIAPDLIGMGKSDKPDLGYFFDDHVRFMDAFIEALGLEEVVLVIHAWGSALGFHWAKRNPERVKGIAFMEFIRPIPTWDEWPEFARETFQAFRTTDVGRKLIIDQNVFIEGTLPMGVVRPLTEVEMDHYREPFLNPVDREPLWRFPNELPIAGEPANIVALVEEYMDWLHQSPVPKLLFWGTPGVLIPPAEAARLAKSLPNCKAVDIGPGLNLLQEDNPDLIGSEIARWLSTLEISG
# Assay Comment: Fluorescence intensity based binding assay of fluorogenic HaloTag ligands
# Run Parameters: 25 nM fluorogenic dye
Answers are plain numbers, in µM.

# count of solved cases: 2
C[Si]1(C)C2=CC(=[N+]3CC(F)C3)C=CC2=C(c2cc(C(=O)NCCOCCOCCCCCCCl)ccc2C(=O)O)c2ccc(N3CC(F)C3)cc21 (stereo not drawn)	172
C[Si]1(C)C2=CC(=[N+]3CCC3)C=CC2=C(c2cc(C(=O)NCCOCCOCCCCCCCl)ccc2C(=O)O)c2ccc(N3CCC3)cc21 [Halo-silicon-rhodamine-azetidine (JF646)]	54.6

Now let's try a different one.
Prompt line: Would you kindly share the measured Kd for CN(C)c1ccc2c(c1)[Si](C)(C)C1=CC(=[N+](C)C)C=CC1=C2c1cc(C(=O)NCCOCCOCCCCCCCl)ccc1C(=O)O [Halo-silicon-rhodamine] ?
Response line: 22.7
